Measured activity coefficient accompanies every entry in the list below.
assay: activity coefficient (dimensionless); of the first substance listed, at infinite dilution; xn = mol fraction of the nth substance listed; conditions: 343.15 K; Liquid; Chromatography; x1 = 0

Please review the following examples before continuing.
CCCCCCCCC [nonane] + CCCOC[n+]1ccn(Cc2ccccc2)c1.N#C[N-]C#N | 76.2
ClCCl [dichloromethane] + CCCOC[n+]1ccn(Cc2ccccc2)c1.O=S(=O)([N-]S(=O)(=O)C(F)(F)F)C(F)(F)F | 0.37
C=CCCCC [hex-1-ene] + CCCCCCCCn1cc[n+](COCCC)c1C.N#C[N-]C#N | 3.94
CCO [ethanol] + CCCOC[n+]1ccn(Cc2ccccc2)c1.F[B-](F)(F)F | 1.38
c1ccncc1 [pyridine] + N#C[N-]C#N.N#C[N-]C#N.c1ccc(Cn2cc[n+](COCCCOC[n+]3ccn(Cc4ccccc4)c3)c2)cc1 | 1.12

stdin: Reported activity coefficient, molecule c1ccncc1 [pyridine] + Cn1cc[n+](COCCCOC[n+]2ccn(C)c2)c1.N#C[N-]C#N.N#C[N-]C#N : ____
stdout: 1.04

stdin: Reported activity coefficient, molecule CCCC(C)=O [pentan-2-one] + CCCOC[n+]1ccn(Cc2ccccc2)c1.N#C[N-]C#N : ____
stdout: 1.51

stdin: Reported activity coefficient, molecule CCCCCCCCCCC [undecane] + CCCCCCCCn1cc[n+](COCCCOC[n+]2ccn(CCCCCCCC)c2C)c1C.N#C[N-]C#N.N#C[N-]C#N : ____
stdout: 22.4

###

experiment: activity coefficient (dimensionless); of the first substance listed, at infinite dilution; xn = mol fraction of the nth substance listed; conditions: 333.15 K; Liquid; Chromatography; x1 = 0
# yes (1) = activity coefficient below 1 (exclusive); no (0) = activity coefficient at/above 1

CO [methanol] + CCCOC[n+]1ccn(C)c1.F[B-](F)(F)F | no (0)
C1COCCO1 [1,4-dioxane] + CCCOC[n+]1ccn(C)c1.N#C[N-]C#N | no (0)

stdin: Lab note: activity coefficient threshold 1. Does this molecule come in strictly under it? Cc1ccccc1 [toluene] + CCCOC[n+]1ccn(Cc2ccccc2)c1.F[B-](F)(F)F
stdout: no (0)

stdin: Lab note: activity coefficient threshold 1. Does this molecule come in strictly under it? c1ccncc1 [pyridine] + N#C[N-]C#N.N#C[N-]C#N.c1ccc(Cn2cc[n+](COCCCOC[n+]3ccn(Cc4ccccc4)c3)c2)cc1
stdout: no (0)

stdin: Lab note: activity coefficient threshold 1. Does this molecule come in strictly under it? CCCC(C)=O [pentan-2-one] + CCCOC[n+]1ccc(N(C)C)cc1.O=S(=O)([N-]S(=O)(=O)C(F)(F)F)C(F)(F)F
stdout: yes (1)

stdin: Lab note: activity coefficient threshold 1. Does this molecule come in strictly under it? ClCCl [dichloromethane] + CCCCCCCCn1cc[n+](COCCCOC[n+]2ccn(CCCCCCCC)c2C)c1C.O=S(=O)([N-]S(=O)(=O)C(F)(F)F)C(F)(F)F.O=S(=O)([N-]S(=O)(=O)C(F)(F)F)C(F)(F)F
stdout: yes (1)

stdin: Lab note: activity coefficient threshold 1. Does this molecule come in strictly under it? CC1CCCCC1 [methylcyclohexane] + CCCOC[n+]1ccn(Cc2ccccc2)c1.N#C[N-]C#N
stdout: no (0)

###

assay: activity coefficient (dimensionless); of the first substance listed, at infinite dilution; xn = mol fraction of the nth substance listed; conditions: 343.15 K; Liquid; Chromatography; x1 = 0
Measured activity coefficient accompanies every entry in the list below.

Please review the following examples before continuing.
CCCCCCCCCCCC [dodecane] + CCCOC[n+]1ccn(C)c1.F[B-](F)(F)F | 1150
CCc1ccccc1 [ethylbenzene] + CCCOC[n+]1ccn(Cc2ccccc2)c1.F[B-](F)(F)F | 4.73
CCCCCCCCC [nonane] + N#C[N-]C#N.N#C[N-]C#N.c1ccc(Cn2cc[n+](COCCCOC[n+]3ccn(Cc4ccccc4)c3)c2)cc1 | 226

stdin: Reported activity coefficient, compound CCCC(C)=O [pentan-2-one] + CCCOC[n+]1ccn(C)c1.O=S(=O)([N-]S(=O)(=O)C(F)(F)F)C(F)(F)F : ____
stdout: 0.73

stdin: Reported activity coefficient, compound C1COCCO1 [1,4-dioxane] + Cn1cc[n+](COCCCOC[n+]2ccn(C)c2)c1.N#C[N-]C#N.N#C[N-]C#N : ____
stdout: 1.13

stdin: Reported activity coefficient, compound CCC(=O)CC [pentan-3-one] + CCCOC[n+]1ccn(Cc2ccccc2)c1.N#C[N-]C#N : ____
stdout: 1.43

stdin: Reported activity coefficient, compound CCCC(C)=O [pentan-2-one] + CCCCCCCCn1cc[n+](COCCCOC[n+]2ccn(CCCCCCCC)c2C)c1C.O=S(=O)([N-]S(=O)(=O)C(F)(F)F)C(F)(F)F.O=S(=O)([N-]S(=O)(=O)C(F)(F)F)C(F)(F)F : ____
stdout: 0.3

###

experiment: activity coefficient (dimensionless); of the first substance listed, at infinite dilution; xn = mol fraction of the nth substance listed; conditions: 343.15 K; Liquid; Chromatography; x1 = 0
measured-parameter: activity coefficient
Respond with the number and no other words.

stdin: Reported activity coefficient, molecule Cc1ccccc1C [1,2-dimethylbenzene] + CCCCCCCCn1cc[n+](COCCC)c1C.O=S(=O)([N-]S(=O)(=O)C(F)(F)F)C(F)(F)F : ____
stdout: 0.94

stdin: Reported activity coefficient, molecule CCC(C)=O [butanone] + CN(C)c1cc[n+](COCCCOC[n+]2ccc(N(C)C)cc2)cc1.O=S(=O)([N-]S(=O)(=O)C(F)(F)F)C(F)(F)F.O=S(=O)([N-]S(=O)(=O)C(F)(F)F)C(F)(F)F : ____
stdout: 0.38

stdin: Reported activity coefficient, molecule CC(C)O [propan-2-ol] + CN(C)c1cc[n+](COCCCOC[n+]2ccc(N(C)C)cc2)cc1.O=S(=O)([N-]S(=O)(=O)C(F)(F)F)C(F)(F)F.O=S(=O)([N-]S(=O)(=O)C(F)(F)F)C(F)(F)F : ____
stdout: 1.18

stdin: Reported activity coefficient, molecule CCCCCCCCCC [decane] + CN(C)c1cc[n+](COCCCOC[n+]2ccc(N(C)C)cc2)cc1.O=S(=O)([N-]S(=O)(=O)C(F)(F)F)C(F)(F)F.O=S(=O)([N-]S(=O)(=O)C(F)(F)F)C(F)(F)F : ____
stdout: 63

stdin: Reported activity coefficient, molecule CCCCCCCCCC [decane] + CCCOC[n+]1ccn(C)c1.N#C[N-]C#N : ____
stdout: 287

stdin: Reported activity coefficient, molecule C1CCCCC1 [cyclohexane] + CCCOC[n+]1ccc(N(C)C)cc1.O=S(=O)([N-]S(=O)(=O)C(F)(F)F)C(F)(F)F : ____
stdout: 6.37

stdin: Reported activity coefficient, molecule CCCCCCCC [octane] + CCCCCCCCn1cc[n+](COCCCOC[n+]2ccn(CCCCCCCC)c2C)c1C.N#C[N-]C#N.N#C[N-]C#N : ____
stdout: 11.3

###

Measured activity coefficient accompanies every entry in the list below.
experiment: activity coefficient (dimensionless); of the first substance listed, at infinite dilution; xn = mol fraction of the nth substance listed; conditions: 323.15 K; Liquid; Chromatography; x1 = 0
Respond with the number and no other words.

Please review the following examples before continuing.
CCOCC [diethyl ether] + CCCOC[n+]1ccn(C)c1.O=S(=O)([N-]S(=O)(=O)C(F)(F)F)C(F)(F)F | 2.21
CC1CCCCC1 [methylcyclohexane] + CCCOC[n+]1ccn(C)c1.O=S(=O)([N-]S(=O)(=O)C(F)(F)F)C(F)(F)F | 13
CO [methanol] + CCCCCCCCn1cc[n+](COCCCOC[n+]2ccn(CCCCCCCC)c2C)c1C.N#C[N-]C#N.N#C[N-]C#N | 0.2
CCO [ethanol] + CCCCCCCCn1cc[n+](COCCC)c1C.O=S(=O)([N-]S(=O)(=O)C(F)(F)F)C(F)(F)F | 1.12
CC1CCCC1 [methylcyclopentane] + CCCOC[n+]1ccn(Cc2ccccc2)c1.O=S(=O)([N-]S(=O)(=O)C(F)(F)F)C(F)(F)F | 5.48

stdin: Reported activity coefficient, molecule CCCCCCC [heptane] + CCCCCCCCn1cc[n+](COCCCOC[n+]2ccn(CCCCCCCC)c2C)c1C.O=S(=O)([N-]S(=O)(=O)C(F)(F)F)C(F)(F)F.O=S(=O)([N-]S(=O)(=O)C(F)(F)F)C(F)(F)F : ____
stdout: 4.67

stdin: Reported activity coefficient, molecule C1COCCO1 [1,4-dioxane] + CCCOC[n+]1ccn(C)c1.N#C[N-]C#N : ____
stdout: 1.06

###

experiment: activity coefficient (dimensionless); of the first substance listed, at infinite dilution; xn = mol fraction of the nth substance listed; conditions: 323.15 K; Liquid; Chromatography; x1 = 0
Measured activity coefficient accompanies every entry in the list below.
Respond with the number and no other words.

CC#N [acetonitrile] + Cn1cc[n+](COCCCOC[n+]2ccn(C)c2)c1.O=S(=O)([N-]S(=O)(=O)C(F)(F)F)C(F)(F)F.O=S(=O)([N-]S(=O)(=O)C(F)(F)F)C(F)(F)F | 0.28

stdin: Reported activity coefficient, compound CCC(C)CC [3-methylpentane] + CCCOC[n+]1ccc(N(C)C)cc1.O=S(=O)([N-]S(=O)(=O)C(F)(F)F)C(F)(F)F : ____
stdout: 9.61

stdin: Reported activity coefficient, compound CCCCO [butan-1-ol] + CCCOC[n+]1ccn(C)c1.F[B-](F)(F)F : ____
stdout: 4.61

Data provenance: the NIST ThermoML archive (doi:10.1016/j.fluid.2014.11.020)
